Tested on: MOLT-4 leukemia
Assay: NCI-60 one-dose screen, 48 h
Conditions: 10 µM unless noted
Compounds without any hit were thinned out: in the full panel of roughly 83,000, 20% have a hit. Active and inactive are the calls of the source. The calls were made as follows: active = growth percent below 10; inactive = the rest.
Reply using exactly one outcome from yes (1) (active), no (0) (inactive)

[[record]]
compound = "S=c1nc(-c2ccccc2)oc(=NC2CCCCC2)n1C1CCCCC1"
target_entity = "MOLT-4 leukemia"
group_label = "yes (1)"


Task: Dear colleague, could you share the recorded outcome for O=C1/C(=C/c2ccc(F)cc2)Sc2c(Br)cccc21 when you have a moment?
Result: no (0)

Task: Also O=C1c2ccccc2NC(n2sc3ccccc3c2=O)N1c1ccccc1 (centres undefined) , if possible.
Result: no (0)

Task: Also NCCCNc1nc2ccc(Cl)cc2c2c(=O)c3cc(F)ccc3sc12 ?
Result: yes (1)

Task: Subsequent entry: c1ccc(OCc2nnc(-c3ccc(Oc4ccccc4)cc3)o2)cc1
Result: no (0)

Task: Would you mind doing CCN(CC)CCNC(=O)c1cn2ncnc(Oc3ccc(NC(=O)Nc4ccc(Cl)c(C(F)(F)F)c4)cc3)c2c1C as well?
Result: yes (1)

Task: Now consider O=c1c2cc(F)cc(Cl)c2sc2c(NCCCNCCO)nc3ccccc3c12 and answer again.
Result: no (0)

* * *

Tested on: NCI-H23 lung
Assay: NCI-60 one-dose screen, 48 h (100 = growth as untreated, 0 = no growth, -100 = all killed)
Conditions: 10 µM unless noted
Method: Growth inhibition of the NCI-H23 human Non-Small Cell Lung tumor cell line is measured as a screen for anti-cancer activity. Cells are grown in 96 well plates and exposed to the test compound for 48 hours. Compounds are tested at a single concentration, which is 10^-5 M for most compounds. The reported endpoint is percent growth (GI% or GIPRCNT), where numbers from 0 - 100% represent growth inhibition, and numbers from -100% - 0 represent cell death. […]
Compounds without any hit were thinned out: in the full panel of roughly 83,000, 20% have a hit.
Lab note: cut-off is 60%. Strictly less in growth is Yes. Exactly 60% or more is No.

[[record]]
compound = "Fc1cc(-c2nnc3sc(-c4ccc(Cl)cc4Cl)nn23)c(Cl)cc1Cl"
group_label = "No"

[[record]]
compound = "NCCOc1ncccc1/C=C1\\c2ccccc2-c2ccc(C(F)F)cc21"
group_label = "Yes"

[[record]]
compound = "CCCCCCNC(=O)Oc1ccc(/C(=C(\\C)c2ccc(Cl)cc2)c2ccc(OCCN3CCCCC3)cc2)cc1"
group_label = "Yes"


Task: Item CCOC(=O)c1c(C)oc2ncnc(N3CCN(C(=O)COc4ccc(C(C)(C)C)cc4)CC3)c12 : growth beneath 60%, strictly?
Result: No

Task: Check CC/C=C\C[C@@H](O)C/C=C1/C(=O)C=C[C@H]1C/C=C\CCCC(=O)OC too.
Result: Yes

Task: Now try COc1nc2ccccc2cc1-c1nc2c(cnn2-c2ccccc2)c(=O)[nH]1 .
Result: Yes

Task: Also COc1cc(CNS(=O)(=O)c2ccc(C)cc2)ccc1OCc1cn(-c2ccccc2)nn1 , if possible.
Result: No

Task: Similarly, COc1cc(C(=O)/C=C/c2ccc(OCCCCCC[P+](c3ccccc3)(c3ccccc3)c3ccccc3)cc2)cc(OC)c1OC ?
Result: Yes

Task: Same for O=C(Nn1c(NCC(=O)N2c3ccccc3Sc3ccccc32)nnc1-c1ccc(O)cc1)c1ccccc1
Result: No

Task: // same read-out, input: O=C1c2cccc3cccc(c23)C(=O)N1Nc1nc(NC2CCCCC2)nc(N2CCOCC2)n1
Result: No

Task: What about this compound? N#Cc1ccc(NC(=O)c2sc3nc4c(cc3c2N)C(=O)CCC4)cc1
Result: No
